assay comment: Chemical stability of ADC payload, pH 5.5 buffer
Format: physicochemical
condition info: McIlvaine (citrate-phosphate) buffer; unconjugated payload; Citrate-Phosphate buffer pH 5.5, 37° C., 20 μM; read-out: Stability Mean Stability t1/2 pH5.5 (converted)
Reported half-life at 20 μM values follow for various compounds

Below, 6 compounds whose answers are already recorded.
CC[C@H](O)[C@@H](C)[C@H]1O[C@@H]1C[C@@](C)(O)/C=C/C=C(\C)[C@H]1OC(=O)C[C@H](O)CC[C@@](C)(OC)[C@@H](OC(=O)N(C)CCNC)/C=C/[C@@H]1C : > 7 days
C/C(=C\c1cc(F)cc(N2CCN(C(=O)Cn3cccn3)CC2)c1)[C@H]1OC(=O)C[C@H](O)CC[C@H](C)[C@@H](OC(=O)N2CCN(C)CC2)/C=C/[C@@H]1C : > 7 days
C/C(=C\c1cc(F)cc(N2CCN(C(=O)Cn3cccn3)CC2)c1)[C@H]1OC(=O)C[C@H](O)CC[C@H](C)[C@@H](OC(=O)N2CCNCC2)/C=C/[C@@H]1C : > 7 days
CC[C@H](O)[C@@H](C)[C@H]1O[C@@H]1C[C@H](C)/C=C/C=C(\C)[C@H]1OC(=O)C[C@H](O)CC[C@@](C)(OC(=O)N2CCNCC2)[C@@H](OC(C)=O)/C=C/[C@@H]1C : < 1 days
CC(=O)N1CCC(n2nnc3c(F)cc(/C=C(\C)[C@H]4OC(=O)C[C@H](O)CC[C@H](C)[C@@H](OC(=O)N5CCNCC5)/C=C/[C@@H]4C)cc32)CC1 : > 7 days
CC(=O)N1CCC(n2nnc3c(F)cc(/C=C(\C)[C@H]4OC(=O)C[C@H](O)CC[C@H](C)[C@@H](OC(=O)N5CCN(C)CC5)/C=C/[C@@H]4C)cc32)CC1 : > 7 days

Let's switch to this compound now.
Input: # get_value(readout='half-life at 20 μM', item= CC[C@H](O)[C@@H](C)[C@H]1O[C@@H]1C[C@H](C)/C=C/C=C(\C)[C@H]1OC(=O)C[C@H](O)CC[C@@](C)(OC(C)=O)[C@@H](OC(=O)N2CCNCC2)/C=C/[C@@H]1C )
Output: < 1 days

Data provenance is patent US11945807B2.
